Just for reference, patent US6737383B1 is where these values come from.

Test system: wild oat
Assay: Test E wild oat
Format: in vivo, Avena fatua
Details: Preemergence, Rate 125 g/ha; 0 to 100 scale (0 no effect, 100 complete control)
Please go through the items and note down their Plant response rating, Wild oat.
Numbers only.

| Molecule | Study System | Value |
| --- | --- | --- |
| CC(C)N(C(=O)n1oc(=O)n(C(C)CCl)c1=O)c1ccc(F)cc1 (centres unmarked) [Compound 367] | wild oat | 55 |
| CCn1c(=O)on(C(=O)N(c2ccc(Cl)cc2)C(C)C)c1=O [Compound 108] | wild oat | 30 |
| CC(C)N(C(=O)n1oc(=O)n(C2CCCCC2)c1=O)c1ccc(Cl)cc1 [Compound 111] | wild oat | 0 |
| Cc1ccccc1-n1c(=O)on(C(=O)N(c2ccc(F)cc2)C(C)C)c1=O [Compound 4] | wild oat | 10 |

Let us move to another entry and its Plant response rating, Wild oat.
Which Plant response rating, Wild oat value is on record for CC(C)N(C(=O)n1oc(=O)n(C2CCCCC2)c1=O)c1ccc(F)cc1 [Compound 110] ? 0
